Recorded values, source PubChem BioAssay.

Assign z-score to each entry below.
# ASSAY PROTOCOL: basal RPMI8226 viability, no added stimulus, profiling panel, cell-based, calcein-AM fluorescence, 48 h, PK04 Diversity Set (AID 1166);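 also: cells grown under basal conditions without added stimulus; test concentration not given here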
# CONDITION SUMMARY: RPMI8226 myeloma viability, higher = more signal
Enter the number alone.

Ask: Item CC(C)=CCCC(C)=CCON=C1C[C@@H](O)[C@@H](O)[C@@H]2[C@@H]3C(=O)N(Cc4ccc5c(c4)OCO5)C(=O)[C@@H]3CC[C@H]12 has what recorded z-score?
Result: -1.31

Ask: Item CCN1C(=O)[C@H]2[C@H]3[C@H](O)[C@H](O)CC(=NOC[C@@H](O)[C@H]4O[C@@H]5OC(C)(C)O[C@@H]5[C@H]4O)[C@@H]3CC[C@H]2C1=O has what recorded z-score?
Result: 0.12

Ask: Item CCc1cc2c(nc1CC)CCN(CCC(C)=NOC[C@@H](C)[C@H](OCc1ccccc1)C(C)C)C2 has what recorded z-score?
Result: -0.584

Ask: Item O=C1C2=CC[C@H]3C(=O)N(C[C@@H]4CCCO4)C(=O)[C@H]3[C@H]2[C@H](O)[C@@H]2O[C@H]12 has what recorded z-score?
Result: -3.32

###

# ASSAY PROTOCOL: MM1S cell viability effects, profiling panel, calcein-AM fluorescence, 48 h, basal (AID 1165);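 also: viability of MM1S multiple myeloma cells under basal unstimulated conditions; test concentration not given here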
# CONDITION SUMMARY: higher = more signal
Output rule met for z-score not less than -0.5; output rule not met otherwise.

Ask: Entry COC(=O)[C@@H]1CC[C@H](C)[C@@H](c2ccc(Br)cc2)N1C[C@H](O)CN=[N+]=[N-] : is its z-score no less than -0.5?
Result: rule met

Ask: Entry CO[C@H]1COC(=O)[C@H](CCSC)NC(=O)CC=C[C@@H](C)[C@H](OC)COC(=O)[C@@H](OCc2ccccc2)C=C[C@@H]1C : is its z-score no less than -0.5?
Result: rule met

Ask: Entry C[C@@H]1C=CCC(=O)OC[C@H](C)C(=O)N[C@@H](Cc2ccccc2)C(=O)OC1 : is its z-score no less than -0.5?
Result: rule met

Ask: Entry CO[C@@H]1COC(=O)[C@H](COCc2ccccc2)NC(=O)CC=C[C@@H](C)[C@H](OC)COC(=O)[C@@H](C)NC(=O)CC=C[C@H]1C : is its z-score no less than -0.5?
Result: rule met

Ask: Entry CO[C@@H]1COC(=O)[C@H](CCSC)NC(=O)CC=C[C@@H](C)COC(=O)[C@@H]2CCCN2C(=O)CC=C[C@H]1C : is its z-score no less than -0.5?
Result: rule met

Ask: Entry CCOC(=O)CCN1C(=O)[C@H]2[C@H]3[C@H](O)[C@H](O)CC(=NOCC=C(C)CCC=C(C)C)[C@@H]3CC[C@H]2C1=O : is its z-score no less than -0.5?
Result: rule met

Ask: Entry COc1ccc(O[C@H]2C=C[C@@H](c3ccccc3)O[C@@H]2COC(=O)NCc2cccc3ccccc23)cc1 : is its z-score no less than -0.5?
Result: rule not met

Ask: Entry CO[C@H]1COC(=O)CC=C[C@@H](C)COC(=O)[C@H]2CCCN2C(=O)CC=C[C@H]1C : is its z-score no less than -0.5?
Result: rule met

Ask: Entry COC(=O)[C@@H]1CC[C@H](C)[C@@H](c2ccc(C)cc2)N1C(=O)c1ccc(C=NOC[C@@H](O)[C@H]2O[C@@H]3OC(C)(C)O[C@@H]3[C@H]2O)cc1 : is its z-score no less than -0.5?
Result: rule not met

Ask: Entry CCN1C(=O)[C@H]2[C@H]3[C@H](O)[C@H](O)CC(=NO[C@@H](C)c4cc(-c5c(C)cc(C)cc5C)no4)[C@@H]3CC[C@H]2C1=O : is its z-score no less than -0.5?
Result: rule not met

Ask: Entry COC(=O)CC=C[C@@H](C)[C@@H](C=NOC(C)CN1CCCc2nc(C)c(C)cc21)NS(=O)(=O)c1ccc(C)cc1 (some centres undefined) : is its z-score no less than -0.5?
Result: rule not met

Ask: Entry O=C1[C@H]2[C@H]3[C@H](O)[C@H](O)CC(=NO[C@@H]4O[C@H](CO)[C@@H](O)[C@H](O)[C@H]4O)[C@H]3CC[C@H]2C(=O)N1C[C@@H]1CCCO1 : is its z-score no less than -0.5?
Result: rule met

Ask: Entry O=C(NN=C1C[C@@H](O)[C@@H](O)[C@@H]2[C@@H]3C(=O)N(c4ccc(F)cc4F)C(=O)[C@@H]3CC[C@H]12)OCc1ccccc1 : is its z-score no less than -0.5?
Result: rule met

Ask: Entry COCCNC(=O)OCC1CCCC2(CC(OC(=O)NCc3cccc4ccccc34)CC(CCC(=O)N[C@@H](C)C(=O)OC)O2)O1 (some centres undefined) : is its z-score no less than -0.5?
Result: rule met
